The values you see were collected from patent US20260083851A1.

Molecular target: TNF (Homo sapiens)
Sequence (P01375 77-233 limits assumed): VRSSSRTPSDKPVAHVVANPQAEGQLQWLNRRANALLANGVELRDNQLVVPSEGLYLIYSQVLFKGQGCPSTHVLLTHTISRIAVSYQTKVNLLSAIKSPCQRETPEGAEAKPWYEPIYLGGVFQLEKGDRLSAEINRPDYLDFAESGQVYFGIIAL
Assay: TNF FP Assay
Type: binding
Details: TNF 20 nM, 25° C., 2 hours; Table 2
pIC50: −log10 of the molar value.
Entries annotated with measured pIC50

Guide cases for pIC50, answers given:
Need pIC50 of CC1(C)C(=O)c2ccc(-c3cnc(N4CCN5C(=O)N(CCCNC(=O)CNC[C@H]6OC[C@H](Nc7cncc(C(F)(F)F)n7)[C@@H](O)[C@H]6O)C[C@@H]5C4)nc3)nc2N1Cc1cccnc1C#N [compound 14] , thanks.
6.30 to 7.00

Fill blank: measured pIC50 of the compound O=C(COCCOCCOCCOCCOCC(=O)N1CCN(Cc2ccc(-c3c[nH]c4ccncc34)c(OCCc3ccc(-c4cccc5ccncc45)cc3)c2)CC1)NC[C@H]1OC[C@H](Nc2cncc(C(F)(F)F)n2)[C@@H](O)[C@H]1O [compound 7] is ____.
> 7.00

New cases:
Name the reported pIC50 value associated with the compound CC1(C)C(=O)c2ccc(-c3cnc(N4CCN5C(=O)N(CCCNC(=O)[C@H]6CC[C@H](C(=O)NC[C@H]7OC[C@H](Nc8cncc(C(F)(F)F)n8)[C@@H](O)[C@H]7O)CC6)C[C@@H]5C4)nc3)nc2N1Cc1cccnc1C#N [compound 15]
< 6.00

Fill in: pIC50 of CC1(C)C(=O)c2ccc(-c3cnc(N4CCN5C(=O)N(CCOCCNC(=O)c6ccc(C(=O)NC[C@H]7OC[C@H](Nc8cncc(C(F)(F)F)n8)[C@@H](O)[C@H]7O)cc6)C[C@@H]5C4)nc3)nc2N1Cc1cccnc1C#N [compound 18] is ___
< 6.00

Look up pIC50: O=C(CCOCC(COCCC(=O)NCCOCCOCCOCCOC[C@H]1OC[C@H](Nc2cncc(C(F)(F)F)n2)[C@@H](O)[C@H]1O)NC(=O)COCCOCCOCC(=O)N1CCN(Cc2ccc(-c3c[nH]c4ccncc34)c(OCCc3ccc(-c4cccc5ccncc45)cc3)c2)CC1)NCCOCCOCCOCCOC[C@H]1OC[C@H](Nc2cncc(C(F)(F)F)n2)[C@@H](O)[C@H]1O [compound 9]
< 6.00

Which pIC50 value is on record for O=C(COCCOCC(=O)N1CCN(Cc2ccc(-c3c[nH]c4ccncc34)c(OCCc3ccc(-c4cccc5ccncc45)cc3)c2)CC1)NC[C@H]1OC[C@H](Nc2cncc(C(F)(F)F)n2)[C@@H](O)[C@H]1O [compound 3] ?
> 7.00

Requested read-out: pIC50. Entry: CC1(C)C(=O)c2ccc(-c3cnc(N4CCN5C(=O)N(CCOCCNC(=O)CNC[C@H]6OC[C@H](Nc7cncc(C(F)(F)F)n7)[C@@H](O)[C@H]6O)C[C@@H]5C4)nc3)nc2N1Cc1cccnc1C#N [compound 10]
< 6.00

Given the compound CC1(C)C(=O)c2ccc(-c3cnc(N4CCN5C(=O)N(CCCNC(=O)COc6cccc(CC(=O)NC[C@H]7OC[C@H](Nc8cncc(C(F)(F)F)n8)[C@@H](O)[C@H]7O)c6)C[C@@H]5C4)nc3)nc2N1Cc1cccnc1C#N [compound 16] , what is its reported pIC50?
< 6.00

====

Measured Kd, listed per entry for reference.
Target: ASGP receptor (biotinylated ASGPR) (Homo sapiens, UniProt P07306)
Construct: biotin (biotinylated)
Assay type: binding
Details: SPR, Biacore 8K, 25° C.; Table 1E; read-out: ASGPR KD

Examples with their reported Kd follow.
Can you look up the measured Kd of C[C@H]1O[C@H](CO)[C@H](Oc2nccc(C(F)(F)F)n2)[C@@H](O)[C@H]1O [A437] for me?
10 to 100 µM

Item C[C@H]1O[C@H](COc2cnccn2)[C@H](Oc2cccc(C(F)(F)F)n2)[C@@H](O)[C@H]1O [A449] has what recorded Kd?
< 10 µM

Bench note: what Kd did C[C@H]1O[C@H](COc2ccc(C(=O)O)nn2)[C@H](Oc2cccc(C(F)(F)F)n2)[C@@H](O)[C@H]1O [A444] show?
< 10 µM

# ---- query compound ----
Query (compound): C[C@H]1O[C@H](C2=CC3C4CCC(C4)C3C2=O)[C@H](Oc2cccc(C(F)(F)F)n2)[C@@H](O)[C@H]1O (stereo partly shown) [A435] ; field requested: Kd
< 10 µM

====

Target: ASGP receptor (biotinylated ASGPR) (Homo sapiens)
Construct: biotin (biotinylated)
Sequence (P07306 1-291): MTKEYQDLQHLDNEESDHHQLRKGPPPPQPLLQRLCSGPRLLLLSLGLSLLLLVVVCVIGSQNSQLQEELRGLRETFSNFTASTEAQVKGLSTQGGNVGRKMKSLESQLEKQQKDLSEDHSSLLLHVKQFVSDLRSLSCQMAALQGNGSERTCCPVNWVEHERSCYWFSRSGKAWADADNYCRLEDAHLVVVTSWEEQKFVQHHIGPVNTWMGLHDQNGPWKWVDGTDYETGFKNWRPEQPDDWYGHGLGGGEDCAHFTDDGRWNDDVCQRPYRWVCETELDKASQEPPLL
Type: binding
Conditions: SPR, Biacore 8K, 25° C.; Table 1C; read-out: ASGPR KD
pKd: −log10 of the molar value.
MEASURED_PROPERTY: pKd

Examples from the recorded data:
Item under review: `O[C@@H]1[C@H](O)[C@@H](Oc2cccc(C(F)(F)F)n2)CO[C@@H]1CN1CCN(c2cccnc2)CC1` . Reported pKd?
> 5.00

Request the reported pKd associated with `C[C@H]1O[C@H](CCCO)[C@H](Oc2cccc(C(F)(F)F)n2)[C@@H](O)[C@H]1O`
> 5.00

Item under review: `CC(C)(C)OC(=O)N1CCC(n2cc([C@H]3OC[C@H](Oc4cccc(C(F)(F)F)n4)[C@@H](O)[C@H]3O)nn2)CC1` . Reported pKd?
> 5.00

New cases:
Any idea what pKd was measured for `C[C@H]1O[C@@H](c2ncnc3c2ncn3Cc2ccccc2)[C@H](Oc2cccc(C(F)(F)F)n2)[C@@H](O)[C@H]1O` ?
> 5.00

Can you look up the measured pKd of `O[C@@H]1[C@H](O)[C@@H](Nc2cncc(C(F)(F)F)n2)CO[C@@H]1C(F)F` for me?
> 5.00

Reported pKd for `O[C@@H]1[C@H](O)[C@@H](Oc2cccc(C(F)(F)F)n2)CO[C@@H]1CSc1ccccc1` : what is it?
> 5.00

====

Target: IgG
Experiment: IgG SPR binding
Conditions: second table, read-out: IgG KD
pKd: −log10 of the molar value.
MEASURED_PROPERTY: pKd

I'd like to know its pKd. The compound in question is CC(C)CC1NC(=O)C(Cc2cnc[nH]2)NC(=O)C(Cc2c[nH]c3ccccc23)NC(=O)C(C)NC(=O)C2CSSCC(NC(=O)C(Cc3c[nH]c4ccccc34)NC(=O)C(C(C)C)NC(=O)C(CC(C)C)NC(=O)C(CCC(=O)O)NC(=O)CNC1=O)C(=O)NC(C(C)O)C(=O)N1CCCC1C(=O)N1CC(NC(=O)CCCc3cn(CCCCCC(=O)NC(COCCC(=O)NCCOCC4OCC(Nc5nccc(C(F)(F)F)n5)C(O)C4O)COCCC(=O)NCCOCC4OCC(Nc5nccc(C(F)(F)F)n5)C(O)C4O)nn3)CC1C(=O)NC(CC(=O)O)C(=O)N2 (centres unmarked) [compound 76]
> 7.00

Note: attention shifts to another entry.
Given the compound CC(C)C[C@@H]1NC(=O)[C@H](Cc2cnc[nH]2)NC(=O)[C@H](Cc2c[nH]c3ccccc23)NC(=O)[C@H](C)NC(=O)[C@@H]2CSSC[C@H](NC(=O)[C@H](Cc3c[nH]c4ccccc34)NC(=O)[C@H](C(C)C)NC(=O)[C@H](CC(C)C)NC(=O)[C@H](CCC(=O)O)NC(=O)CNC1=O)C(=O)N[C@@H]([C@@H](C)O)C(=O)N1CCC[C@@H]1C(=O)N1C[C@H](N)C[C@H]1C(=O)N[C@@H](CC(=O)O)C(=O)N2 [compound 95] , what is its reported pKd?
> 7.00

====

Molecular target: ASGPR receptor on HepG2 cells (ternary complex with AF488-labeled antibody) (Homo sapiens)
Construct: host or cells: HepG2
Experiment: Ternary complex formation assay (flow cytometry, cell-associated AF488 fluorescence)
Type: cell-based
Conditions: read-out: TCF EC50, 100 nM AF488-labeled antibody, 1 hour at 4° C., the 25th table, class symbols
pEC50: −log10 of the molar value.
MEASURED_PROPERTY: pEC50

Worked examples, 4 compounds total:
Entry CC(C)CC1NC(=O)C(Cc2cnc[nH]2)NC(=O)C(Cc2c[nH]c3ccccc23)NC(=O)C(C)NC(=O)C2CSSCC(NC(=O)C(Cc3c[nH]c4ccccc34)NC(=O)C(C(C)C)NC(=O)C(CC(C)C)NC(=O)C(CCC(=O)O)NC(=O)CNC1=O)C(=O)NC(C(C)O)C(=O)N1CCCC1C(=O)N1CC(NC(=O)c3ccc(N4CCC(CN5CCN(CC6OCC(Nc7cncc(C(F)(F)F)n7)C(O)C6O)CC5)CC4)nn3)CC1C(=O)NC(CC(=O)O)C(=O)N2 (centres unmarked) has what pEC50?
> 7.00

What pEC50 value was documented for this compound, CC(C)CC1NC(=O)C(Cc2cnc[nH]2)NC(=O)C(Cc2c[nH]c3ccccc23)NC(=O)C(C)NC(=O)C2CSSCC(NC(=O)C(Cc3c[nH]c4ccccc34)NC(=O)C(C(C)C)NC(=O)C(CC(C)C)NC(=O)C(CCC(=O)O)NC(=O)CNC1=O)C(=O)NC(C(C)O)C(=O)N1CCCC1C(=O)N1CC(NC(=O)C3CCC(C(=O)NCC4OCC(Nc5cncc(C(F)(F)F)n5)C(O)C4O)CC3)CC1C(=O)NC(CC(=O)O)C(=O)N2 (centres unmarked) ?
< 6.00

Given CC(C)CC1NC(=O)C(Cc2cnc[nH]2)NC(=O)C(Cc2c[nH]c3ccccc23)NC(=O)C(C)NC(=O)C2CSSCC(NC(=O)C(Cc3c[nH]c4ccccc34)NC(=O)C(C(C)C)NC(=O)C(CC(C)C)NC(=O)C(CCC(=O)O)NC(=O)CNC1=O)C(=O)NC(C(C)O)C(=O)N1CCCC1C(=O)N1CC(NC(=O)c3ccc(N4CCC(CN5CCN(CC6OCC(Nc7cncc(C(F)(F)F)n7)C(O)C6O)CC5)CC4)cc3)CC1C(=O)NC(CC(=O)O)C(=O)N2 (centres unmarked) [compound 98] , state its recorded pEC50.
> 7.00

Which pEC50 is listed for CC(C)CC1NC(=O)C(Cc2cnc[nH]2)NC(=O)C(Cc2c[nH]c3ccccc23)NC(=O)C(C)NC(=O)C2CSSCC(NC(=O)C(Cc3c[nH]c4ccccc34)NC(=O)C(C(C)C)NC(=O)C(CC(C)C)NC(=O)C(CCC(=O)N(C)C)NC(=O)CNC1=O)C(=O)NC(C(C)O)C(=O)N1CCCC1C(=O)N1CC(NC(=O)CNC(COCCC(=O)NCCOCCOCCOCCOCC3OCC(Nc4cncc(C(F)(F)F)n4)C(O)C3O)COCCC(=O)NCCOCCOCCOCCOCC3OCC(Nc4cncc(C(F)(F)F)n4)C(O)C3O)CC1C(=O)NC(CC(=O)O)C(=O)N2 (centres unmarked) ?
> 7.00

***
So what's the measured pEC50 for this one? CC(C)CC1NC(=O)C(Cc2cnc[nH]2)NC(=O)C(Cc2c[nH]c3ccccc23)NC(=O)C(C)NC(=O)C2CSSCC(NC(=O)C(Cc3c[nH]c4ccccc34)NC(=O)C(C(C)C)NC(=O)C(CC(C)C)NC(=O)C(CCC(=O)O)NC(=O)CNC1=O)C(=O)NC(C(C)O)C(=O)N1CCCC1C(=O)N1CC(NC(=O)CCCc3cn(CC4OCC(Nc5cncc(C(F)(F)F)n5)C(O)C4O)nn3)CC1C(=O)NC(CC(=O)O)C(=O)N2 (centres unmarked)
> 7.00
